Data origin, for the record: paper PMC6661771

Task for the reader: assign each of the following compounds its reported melting point.

Request: Entry "CCc1nnc(/N=C(/C)c2ccc(/N=N\c3c[nH]c4ccccc34)cc2)s1" needs its melting point filled in; supply it.
Response: 145 to 150 °C

Request: Entry "C/C(=N/c1cc(Cl)ccc1Cl)c1ccc(/N=N\c2c[nH]c3ccc([N+](=O)[O-])cc23)cc1" needs its melting point filled in; supply it.
Response: 210 to 215 °C

Request: Entry "C/C(=N/c1ccc(F)cc1)c1ccc(/N=N\c2c[nH]c3ccc([N+](=O)[O-])cc23)cc1" needs its melting point filled in; supply it.
Response: 150 to 152 °C

Request: Entry "C/C(=N/c1ncccn1)c1ccc(/N=N\c2c[nH]c3ccccc23)cc1" needs its melting point filled in; supply it.
Response: 275 to 280 °C

Request: Entry "C/C(=N/c1nnc(-c2ccc([N+](=O)[O-])cc2)s1)c1ccc(/N=N\c2c[nH]c3ccc([N+](=O)[O-])cc23)cc1" needs its melting point filled in; supply it.
Response: 160 to 165 °C

Request: Entry "C/C(=N\Cc1ccco1)c1ccc(/N=N/c2c[nH]c3ccccc23)cc1" needs its melting point filled in; supply it.
Response: 315 to 320 °C

Request: Entry "C/C(=N/c1nc2ccccc2s1)c1ccc(/N=N\c2c[nH]c3ccc([N+](=O)[O-])cc23)cc1" needs its melting point filled in; supply it.
Response: 130 to 135 °C

Request: Entry "CC(=O)NS(=O)(=O)c1ccc(/N=C(/C)c2ccc(/N=N\c3c[nH]c4ccc([N+](=O)[O-])cc34)cc2)cc1" needs its melting point filled in; supply it.
Response: 110 to 115 °C

Request: Entry "C/C(=N/c1nnc(-c2ccc([N+](=O)[O-])cc2Cl)s1)c1ccc(/N=N\c2c[nH]c3ccc([N+](=O)[O-])cc23)cc1" needs its melting point filled in; supply it.
Response: 155 to 160 °C

Request: Entry "C/C(=N/c1ccc(S(=O)(=O)Nc2ccccn2)cc1)c1ccc(/N=N\c2c[nH]c3ccccc23)cc1" needs its melting point filled in; supply it.
Response: 135 to 140 °C

Request: Entry "C/C(=N/CCNc1cccc2ccccc12)c1ccc(/N=N\c2c[nH]c3ccccc23)cc1" needs its melting point filled in; supply it.
Response: 110 to 115 °C

Request: Entry "CCOC(=O)c1c(/N=C(/C)c2ccc(/N=N\c3c[nH]c4ccccc34)cc2)sc2c1CCCC2" needs its melting point filled in; supply it.
Response: 260 to 265 °C

Request: Entry "C/C(=N/c1ccc(C(=O)O)cc1)c1ccc(/N=N\c2c[nH]c3ccccc23)cc1" needs its melting point filled in; supply it.
Response: 205 to 210 °C

Request: Entry "C/C(=N/c1c(C)n(C)n(-c2ccccc2)c1=O)c1ccc(/N=N\c2c[nH]c3ccc([N+](=O)[O-])cc23)cc1" needs its melting point filled in; supply it.
Response: 170 to 175 °C

----------
- System: B. subtilis
- test_name: MIC by tube dilution method
- Format: cell-based
- assay_setup: Bacillus subtilis, 24 h at 37 °C, read-out: MIC
assay_endpoint: MIC (µg/mL)
The response must be a number in µg/mL with no trailing unit.

Request: Give reported MIC for C/C(=N/c1nnc(-c2ccc([N+](=O)[O-])cc2)s1)c1ccc(/N=N\c2c[nH]c3ccc([N+](=O)[O-])cc23)cc1 [DS-5] (B. subtilis)
Response: 62.5

Request: Give reported MIC for C/C(=N/CCNc1cccc2ccccc12)c1ccc(/N=N\c2c[nH]c3ccccc23)cc1 [DS-20] (B. subtilis)
Response: 125

Request: Give reported MIC for CO/N=C(\C(=O)N[C@@H]1C(=O)N2C(C(=O)O)=C(COC(C)=O)CS[C@H]12)c1csc(N)n1 [CFT, cefotaxime, reference compound] (B. subtilis)
Response: 15.6

Request: Give reported MIC for O=C(O)c1cn(C2CC2)c2cc(N3CCNCC3)c(F)cc2c1=O [CPR, ciprofloxacin, reference compound] (B. subtilis)
Response: 7.81

Request: Give reported MIC for C/C(=N/c1nnc(-c2ccc([N+](=O)[O-])cc2Cl)s1)c1ccc(/N=N\c2c[nH]c3ccc([N+](=O)[O-])cc23)cc1 [DS-3] (B. subtilis)
Response: 31.2

Request: Give reported MIC for C/C(=N/c1ccc(Cl)cc1[N+](=O)[O-])c1ccc(/N=N\c2c[nH]c3ccccc23)cc1 [DS-13] (B. subtilis)
Response: 62.5

Request: Give reported MIC for C/C(=N\Cc1ccco1)c1ccc(/N=N/c2c[nH]c3ccccc23)cc1 [DS-1] (B. subtilis)
Response: 62.5

Request: Give reported MIC for CC(=O)NS(=O)(=O)c1ccc(/N=C(/C)c2ccc(/N=N\c3c[nH]c4ccc([N+](=O)[O-])cc34)cc2)cc1 [DS-15] (B. subtilis)
Response: 31.2

Request: Give reported MIC for C/C(=N/c1ccc(C(=O)O)cc1)c1ccc(/N=N\c2c[nH]c3ccccc23)cc1 [DS-14] (B. subtilis)
Response: 31.2

Request: Give reported MIC for CCc1nnc(/N=C(/C)c2ccc(/N=N\c3c[nH]c4ccccc34)cc2)s1 [DS-7] (B. subtilis)
Response: 125

Request: Give reported MIC for CCOC(=O)c1c(/N=C(/C)c2ccc(/N=N\c3c[nH]c4ccccc34)cc2)sc2c1CCCC2 [DS-2] (B. subtilis)
Response: 31.2

Request: Give reported MIC for C/C(=N/c1nc2ccccc2s1)c1ccc(/N=N\c2c[nH]c3ccc([N+](=O)[O-])cc23)cc1 [DS-21] (B. subtilis)
Response: 31.2

Request: Give reported MIC for C/C(=N/c1ccc(F)cc1)c1ccc(/N=N\c2c[nH]c3ccc([N+](=O)[O-])cc23)cc1 [DS-16] (B. subtilis)
Response: 31.2

Request: Give reported MIC for C/C(=N/c1ncccn1)c1ccc(/N=N\c2c[nH]c3ccccc23)cc1 [DS-17] (B. subtilis)
Response: 125

Request: Give reported MIC for C/C(=N/c1cc(Cl)ccc1Cl)c1ccc(/N=N\c2c[nH]c3ccc([N+](=O)[O-])cc23)cc1 [DS-10] (B. subtilis)
Response: 62.5

Request: Give reported MIC for C/C(=N/c1c(C)n(C)n(-c2ccccc2)c1=O)c1ccc(/N=N\c2c[nH]c3ccc([N+](=O)[O-])cc23)cc1 [DS-6] (B. subtilis)
Response: 31.2

Request: Give reported MIC for C/C(=N/c1ccc(S(=O)(=O)Nc2ccccn2)cc1)c1ccc(/N=N\c2c[nH]c3ccccc23)cc1 [DS-11] (B. subtilis)
Response: 31.2
